- Test system: Mycosphaerella graminicola; Anamorph: Septoria tritici; Bayer Code SEPTTR
- experiment.notes: Leaf blotch of wheat, foliar fungicide treatment, one day protectant (1DP) or three day curative (3DC)
- Type: in vivo, Septoria tritici on wheat plants (variety Yuma)
- measurement.parameters: Zymoseptoria tritici, 72 h, three day curative (3DC), 25 ppm, percent control rating, read-out: SEPTTR 3DC 25 ppm
pest or weed control at 25 ppm: recorded values

{"compound.structure": "COc1nn(C)c(C(F)(F)F)c1S(=O)(=O)Nc1nc(O)ncc1F", "pest or weed control at 25 ppm": "0 to 25%"}
{"compound.structure": "CC(C)NC(=O)Nc1nc(O)ncc1F", "pest or weed control at 25 ppm": "51 to 75%"}
{"compound.structure": "CCC(/C=N/Nc1nc(OC)ncc1F)CC", "pest or weed control at 25 ppm": "26 to 50%"}

For Cc1ccc(COc2ncc(F)c(NS(=O)(=O)c3c(Br)cnn3C)n2)cc1 , what is its reported pest or weed control at 25 ppm?
0 to 25%

* * *

pest or weed control at 100 ppm: recorded values
- Test system: Mycosphaerella graminicola; Anamorph: Septoria tritici; Bayer Code SEPTTR
- experiment.notes: Leaf blotch of wheat, foliar fungicide treatment, one day protectant (1DP) or three day curative (3DC)
- Type: in vivo, Septoria tritici on wheat plants (variety Yuma)
- measurement.parameters: Zymoseptoria tritici, 24 h, one day protectant (1DP), 100 ppm, rating of percent disease control, read-out: SEPTTR 1DP 100 ppm

Please review the following examples before continuing.
{"molecule": "CC(Oc1ncc(F)c(NC(=O)OCc2ccccc2)n1)c1ccc(F)cc1 (stereo not shown)", "reported.value": "76 to 100%"}
{"molecule": "COc1cccc(COc2ncc(F)c(NC(=O)NCc3ccccc3F)n2)c1", "reported.value": "0 to 25%"}
{"molecule": "ONc1nc(OCc2ccccc2)ncc1F", "reported.value": "76 to 100%"}
{"molecule": "COc1ccc(S(=O)(=O)Oc2ncc(F)c(/N=C/N(C)C)n2)cc1", "reported.value": "76 to 100%"}
{"molecule": "COc1cccc(COc2ncc(F)c(N(N)c3ccccc3)n2)c1", "reported.value": "0 to 25%"}
{"molecule": "Cc1cccc(COc2ncc(F)c(N)n2)c1", "reported.value": "76 to 100%"}

For CCCCOc1cccc(C(C)Oc2ncc(F)c(N)n2)c1 (stereo not shown) , what is its reported pest or weed control at 100 ppm?
76 to 100%

For COc1ccc(COc2ncc(F)c(/N=C/N3CCOCC3)n2)cc1F , what is its reported pest or weed control at 100 ppm?
76 to 100%

For CN(C)/C=N/c1nc(OCc2cccc(C#N)c2)ncc1F , what is its reported pest or weed control at 100 ppm?
76 to 100%

For CC(Oc1ncc(F)c(N)n1)c1ccc([N+](=O)[O-])cc1 (stereo not shown) , what is its reported pest or weed control at 100 ppm?
76 to 100%

* * *

- Tested on: Mycosphaerella graminicola; Anamorph: Septoria tritici; Bayer Code SEPTTR
- experiment.notes: Leaf blotch of wheat, foliar fungicide treatment, one day protectant (1DP) or three day curative (3DC)
- Assay type: in vivo, Septoria tritici on wheat plants (variety Yuma)
- measurement.parameters: Zymoseptoria tritici, 24 h, one day protectant (1DP), 100 ppm, rating of percent disease control, read-out: SEPTTR 1DP 100 ppm
test.readout: pest or weed control at 100 ppm

Please review the following examples before continuing.
{"compound": "O=C(Nc1nc(OCc2cccc(F)c2)ncc1F)OCc1cccc(F)c1 [Compound 360]", "target.entity": "Mycosphaerella graminicola; Anamorph: Septoria tritici; Bayer Code SEPTTR", "reported.value": "76 to 100%"}
{"compound": "NN(Cc1ccccc1Cl)c1nc(OCc2ccc(F)cc2)ncc1F [Compound 456]", "target.entity": "Mycosphaerella graminicola; Anamorph: Septoria tritici; Bayer Code SEPTTR", "reported.value": "76 to 100%"}
{"compound": "CC[Si](CC)(CC)Nc1nc(OCCCOC)ncc1F [Compound 279]", "target.entity": "Mycosphaerella graminicola; Anamorph: Septoria tritici; Bayer Code SEPTTR", "reported.value": "76 to 100%"}

For COc1ccc(Br)c(COc2ncc(F)c(N)n2)c1F [Compound 224] , what is its reported pest or weed control at 100 ppm?
76 to 100%

For O=C(Nc1ccccc1)Nc1nc(OCc2ccc(F)cc2)ncc1F [Compound 485] , what is its reported pest or weed control at 100 ppm?
0 to 25%

For C#CCOc1ncc(F)c(N)n1 [Compound 746] , what is its reported pest or weed control at 100 ppm?
0 to 25%

For COc1cccc(COc2ncc(F)c(NCO)n2)c1 [Compound 741] , what is its reported pest or weed control at 100 ppm?
76 to 100%

For COc1cccc(COc2ncc(F)c(OC)n2)c1 [Compound 269] , what is its reported pest or weed control at 100 ppm?
0 to 25%

For O=C(Nc1nc(OCc2ccc(F)cc2)ncc1F)c1ccccc1 [Compound 364] , what is its reported pest or weed control at 100 ppm?
76 to 100%

For COCNc1nc(OCc2ccc(F)cc2)ncc1F [Compound 362] , what is its reported pest or weed control at 100 ppm?
76 to 100%

All figures here come from patent US9204653B2.
